# assayedTarget: UniProt Q9Y2I1
# Sequence (Q9Y2I1 whole entry): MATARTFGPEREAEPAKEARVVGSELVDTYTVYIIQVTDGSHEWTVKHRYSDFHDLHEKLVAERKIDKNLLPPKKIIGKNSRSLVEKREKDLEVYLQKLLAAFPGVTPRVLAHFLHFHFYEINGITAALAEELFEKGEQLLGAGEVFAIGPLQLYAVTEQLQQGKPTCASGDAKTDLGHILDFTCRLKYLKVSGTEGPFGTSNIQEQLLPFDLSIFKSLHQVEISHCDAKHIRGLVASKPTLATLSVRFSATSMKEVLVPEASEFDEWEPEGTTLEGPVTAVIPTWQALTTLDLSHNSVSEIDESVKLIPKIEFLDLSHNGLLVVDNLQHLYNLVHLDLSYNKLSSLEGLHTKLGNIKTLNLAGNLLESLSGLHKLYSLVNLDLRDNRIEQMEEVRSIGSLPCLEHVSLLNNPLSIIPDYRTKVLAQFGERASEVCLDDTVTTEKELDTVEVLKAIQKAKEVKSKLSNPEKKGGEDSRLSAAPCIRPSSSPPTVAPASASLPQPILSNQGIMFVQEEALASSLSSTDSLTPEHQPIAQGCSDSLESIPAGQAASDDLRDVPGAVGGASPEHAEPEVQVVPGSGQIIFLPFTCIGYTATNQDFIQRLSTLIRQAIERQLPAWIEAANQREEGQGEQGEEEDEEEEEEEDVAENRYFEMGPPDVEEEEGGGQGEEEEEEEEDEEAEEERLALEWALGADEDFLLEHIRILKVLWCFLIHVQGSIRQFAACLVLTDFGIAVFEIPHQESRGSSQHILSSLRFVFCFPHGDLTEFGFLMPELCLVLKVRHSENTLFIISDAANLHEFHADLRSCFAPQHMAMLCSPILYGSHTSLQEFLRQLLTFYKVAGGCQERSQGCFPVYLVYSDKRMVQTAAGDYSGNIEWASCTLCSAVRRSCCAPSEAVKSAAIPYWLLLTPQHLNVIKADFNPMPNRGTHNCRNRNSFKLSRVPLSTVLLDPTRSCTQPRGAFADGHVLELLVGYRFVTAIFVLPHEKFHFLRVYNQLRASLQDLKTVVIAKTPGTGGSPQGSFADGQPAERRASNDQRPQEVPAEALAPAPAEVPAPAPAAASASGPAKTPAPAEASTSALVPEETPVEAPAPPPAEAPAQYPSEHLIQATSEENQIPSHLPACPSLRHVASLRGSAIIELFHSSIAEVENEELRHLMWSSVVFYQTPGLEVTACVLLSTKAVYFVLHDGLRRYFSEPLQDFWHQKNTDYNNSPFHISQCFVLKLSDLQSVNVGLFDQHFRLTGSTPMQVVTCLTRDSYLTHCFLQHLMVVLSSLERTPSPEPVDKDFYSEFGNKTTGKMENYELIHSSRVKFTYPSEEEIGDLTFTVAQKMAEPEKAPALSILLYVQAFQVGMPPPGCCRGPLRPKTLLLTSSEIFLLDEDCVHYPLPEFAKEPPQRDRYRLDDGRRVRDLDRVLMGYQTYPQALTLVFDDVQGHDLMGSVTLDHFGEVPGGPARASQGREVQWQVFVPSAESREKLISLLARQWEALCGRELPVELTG
# procedureText: Displacement of [3H]clonidine from I1IR in human brain frontal cortex in presence of adrenaline incubated for 45 mins by liquid scintillation spectrometry
parameterMeasured: IC50

molecule="COc1nc(C)nc(Cl)c1N=C1NCCN1 [MOXONIDINE]" parametermeasured=IC50 valuemeasured="3.55 nM"
molecule="CCOP(=O)(OCC)C1(c2ccccc2)N=CC2C(=O)N(Cc3ccccc3)C(=O)C21 (racemic)" parametermeasured=IC50 valuemeasured="1350 nM"
molecule="CCOP(=O)(OCC)C1(c2ccccc2)N=CC2C(=O)N(c3ccc(OC)cc3)C(=O)C21 (racemic)" parametermeasured=IC50 valuemeasured="603000 nM"
